# Tested on: mouse PI3K p85
# method: Inhibition of mouse PI3K p85 mRNA levels by antisense oligonucleotides, real-time quantitative RT-PCR
# Assay type: cell-based
# Parameters: concentration or dose not given beside the values
# conditions: chimeric phosphorothioate 2′-MOE gapmers, averaged from two experiments
Strand notation (5' to 3'): a small letter for the sugar, then the base; units joined by * are phosphorothioate-linked, units joined directly phosphodiester-linked; [ ] holds rarer units or linkages, { } end groups; capitals alone tell only the bases. e = 2'-O-(2-methoxyethyl) (MOE); [5mC] = 5-methylcytosine; d = 2'-deoxy (DNA)
endpoint.label: % Inhib. of mouse PI3K p85 mRNA levels (%)
The reply should be a number in %, with the unit left off.

Answered examples (2):
substance | % Inhib. of mouse PI3K p85 mRNA levels, %
131408 (antisense e[5mC]*e[5mC]*eA*eT*e[5mC]*dT*dG*dT*d[5mC]*d[5mC]*dT*d[5mC]*d[5mC]*dA*dT*e[5mC]*eA*eA*e[5mC]*eG) [compound 131408] | 88
131420 (antisense e[5mC]*eG*eA*eT*e[5mC]*dT*d[5mC]*dT*d[5mC]*dG*dG*dT*dA*d[5mC]*dT*e[5mC]*eA*eG*e[5mC]*eT) [compound 131420] | 79

Input: Item 131422 (antisense e[5mC]*e[5mC]*eA*eT*eA*dG*d[5mC]*d[5mC]*dG*dG*dT*dG*dG*d[5mC]*dA*eG*eT*e[5mC]*eT*eT) [compound 131422] with mouse PI3K p85 - % Inhib. of mouse PI3K p85 mRNA levels?
Output: 40

Input: Which measured % Inhib. of mouse PI3K p85 mRNA levels belongs to 131414 (antisense eT*e[5mC]*eG*eG*e[5mC]*dG*dA*dG*dA*dT*dA*dG*d[5mC]*dG*dT*eT*eT*eG*eA*eA) [compound 131414] , tested on mouse PI3K p85?
Output: 73

====

# System: human PI3K p85 RNA
# method: Inhibition of human PI3K p85 mRNA levels by antisense oligonucleotides, real-time quantitative PCR
# Format: cell-based
# conditions: chimeric phosphorothioate oligonucleotides with 2′-MOE wings and deoxy gap, oligonucleotide 150 nM, averaged from two experiments
Strand notation (5' to 3'): a small letter for the sugar, then the base; units joined by * are phosphorothioate-linked, units joined directly phosphodiester-linked; [ ] holds rarer units or linkages, { } end groups; capitals alone tell only the bases. e = 2'-O-(2-methoxyethyl) (MOE); [5mC] = 5-methylcytosine; d = 2'-deoxy (DNA)
Rule: % Inhibition of PI3K p85 mRNA levels of 10% or more gives label 1; anything lower gives label 0.

Reference set (8 entries):
substance | system.tested | label
28038 (antisense eG*eT*e[5mC]*eT*dT*dC*dA*dG*dT*dG*dT*dT*dT*dT*e[5mC]*eA*eT*eT) [compound 28038] | human PI3K p85 RNA | label 0
28053 (antisense eT*eT*e[5mC]*eT*dG*dG*dC*dA*dC*dT*dT*dT*dC*dT*eA*eT*eG*eA) [compound 28053] | human PI3K p85 RNA | label 0
28026 (antisense eA*eG*eT*eA*dG*dG*dT*dT*dT*dT*dG*dG*dT*dG*eG*eT*eT*eT) [compound 28026] | human PI3K p85 RNA | label 1
28020 (antisense eA*eA*eT*eT*dC*dT*dG*dC*dC*dA*dG*dG*dT*dT*eG*e[5mC]*eT*eG) [compound 28020] | human PI3K p85 RNA | label 1
28045 (antisense eG*e[5mC]*e[5mC]*e[5mC]*dT*dT*dT*dG*dC*dT*dT*dT*dC*dC*eA*eG*eA*eG) [compound 28045] | human PI3K p85 RNA | label 0
28017 (antisense eA*eT*e[5mC]*eT*dT*dC*dT*dT*dC*dT*dC*dT*dT*dT*e[5mC]*e[5mC]*eT*eT) [compound 28017] | human PI3K p85 RNA | label 1
28032 (antisense eT*eT*eT*e[5mC]*dT*dC*dA*dT*dT*dG*dC*dC*dT*dT*e[5mC]*eA*e[5mC]*eG) [compound 28032] | human PI3K p85 RNA | label 1
28018 (antisense eG*e[5mC]*eT*eT*dC*dC*dT*dG*dT*dC*dC*dA*dT*dC*eA*e[5mC]*eT*eG) [compound 28018] | human PI3K p85 RNA | label 1

Input: % Inhibition of PI3K p85 mRNA levels >= 10% for 28030 (antisense eA*eT*eT*eT*dC*dC*dT*dG*dG*dG*dA*dT*dG*dT*eG*e[5mC]*eG*eG) [compound 28030] ?
Output: label 1

Input: API: above_or_equal(metric=% Inhibition of PI3K p85 mRNA levels, cutoff=10%) for item 28042 (antisense e[5mC]*eT*eT*eT*dA*dC*dT*dT*dC*dG*dC*dC*dG*dT*e[5mC]*e[5mC]*eA*e[5mC]) [compound 28042]
Output: label 0

Input: I'd appreciate it if you could say whether 28040 (antisense e[5mC]*e[5mC]*eT*eG*dT*dT*dT*dA*dC*dT*dG*dC*dT*dC*eT*e[5mC]*e[5mC]*e[5mC]) [compound 28040] has % Inhibition of PI3K p85 mRNA levels at least equal to 10%.
Output: label 0

====

# Test system: mouse PI3K p85
# method: Inhibition of mouse PI3K p85 mRNA levels by antisense oligonucleotides, real-time quantitative RT-PCR
# Assay type: cell-based
# Parameters: concentration or dose not given beside the values
# conditions: chimeric phosphorothioate 2′-MOE gapmers, averaged from two experiments
Strand notation (5' to 3'): a small letter for the sugar, then the base; units joined by * are phosphorothioate-linked, units joined directly phosphodiester-linked; [ ] holds rarer units or linkages, { } end groups; capitals alone tell only the bases. e = 2'-O-(2-methoxyethyl) (MOE); [5mC] = 5-methylcytosine; d = 2'-deoxy (DNA)
endpoint.label: % Inhib. of mouse PI3K p85 mRNA levels

Take a look at these entries with their results.
substance | system.tested | assay.result
gctcccgacattccacgtct (eG*e[5mC]*eT*e[5mC]*e[5mC]*d[5mC]*dG*dA*d[5mC]*dA*dT*dT*d[5mC]*d[5mC]*dA*e[5mC]*eG*eT*e[5mC]*eT; antisense) [ISIS 131421] | mouse PI3K p85 | at least 60%
cctggccatcactgaatcca (CCTGGCCATCACTGAATCCA; chemistry not given here) [ISIS 131410] | mouse PI3K p85 | at least 60%
131426 (antisense eG*e[5mC]*eA*eT*e[5mC]*dA*dA*dT*dG*dT*dT*d[5mC]*dT*d[5mC]*dT*e[5mC]*eA*eA*eA*eG) [compound 131426] | mouse PI3K p85 | 75%
gcactcatgtctgcagctct (eG*e[5mC]*eA*e[5mC]*eT*d[5mC]*dA*dT*dG*dT*d[5mC]*dT*dG*d[5mC]*dA*eG*e[5mC]*eT*e[5mC]*eT; antisense) [ISIS 131409] | mouse PI3K p85 | at least 60%

From here, focus on the item given below.
Input: Request body: readout % Inhib. of mouse PI3K p85 mRNA levels, system mouse PI3K p85, query cgatctctcggtactcagct (e[5mC]*eG*eA*eT*e[5mC]*dT*d[5mC]*dT*d[5mC]*dG*dG*dT*dA*d[5mC]*dT*e[5mC]*eA*eG*e[5mC]*eT; antisense) [ISIS 131420] . Return the value.
Output: at least 60%

====

# Tested on: human PI3K p85 RNA
# method: Inhibition of human PI3K p85 mRNA levels by antisense oligonucleotides, real-time quantitative PCR
# Type: cell-based
# conditions: phosphorothioate oligodeoxynucleotides, oligonucleotide 150 nM, averages from two experiments
endpoint.label: % Inhibition of PI3K p85 mRNA levels (%)
Reply with just the number (in %).

substance | unit.string | assay.result
27979 (antisense TTCAATGGCTTCCACGAG; DNA, all phosphorothioate, methylation of C not given here) [compound 27979] | % | 6
28010 (antisense TGTCTGGGTCCACCGTGC; DNA, all phosphorothioate, methylation of C not given here) [compound 28010] | % | 55
27981 (antisense GTAAGTCCAGGAGATAGC; DNA, all phosphorothioate, methylation of C not given here) [compound 27981] | % | 14
27991 (antisense CCGCTCTTGGGTCTGGCA; DNA, all phosphorothioate, methylation of C not given here) [compound 27991] | % | 71
27987 (antisense TTATTCATACCGTTGTTG; DNA, all phosphorothioate, methylation of C not given here) [compound 27987] | % | 4

Pending substance:
Input: Any idea what its % Inhibition of PI3K p85 mRNA levels is? The substance is 27996 (antisense TCAACTTCTTTTGCCGAA; DNA, all phosphorothioate, methylation of C not given here) [compound 27996]
Output: 38

====

substances and their reported % Inhibition of PI3K p85 mRNA levels
# System: human PI3K p85 RNA
# method: Inhibition of human PI3K p85 mRNA levels by antisense oligonucleotides, real-time quantitative PCR
# Type: cell-based
# conditions: chimeric phosphorothioate oligonucleotides with 2′-MOE wings and deoxy gap, oligonucleotide 150 nM, averaged from two experiments
Strand notation (5' to 3'): a small letter for the sugar, then the base; units joined by * are phosphorothioate-linked, units joined directly phosphodiester-linked; [ ] holds rarer units or linkages, { } end groups; capitals alone tell only the bases. e = 2'-O-(2-methoxyethyl) (MOE); [5mC] = 5-methylcytosine; d = 2'-deoxy (DNA)
Give the value, in units of %, as a plain number.

substance | system.tested | % Inhibition of PI3K p85 mRNA levels [%]
28056 (antisense e[5mC]*e[5mC]*eA*eA*dC*dA*dA*dA*dA*dC*dA*dG*dT*dC*e[5mC]*eA*eA*eA) [compound 28056] | human PI3K p85 RNA | 15

Input: Give the measured % Inhibition of PI3K p85 mRNA levels of 28022 (antisense eA*eT*eT*eT*dC*dA*dC*dT*dG*dT*dA*dA*dA*dC*eG*eG*e[5mC]*eT) [compound 28022] .
Output: 69

Input: I would be grateful if you could share the reported % Inhibition of PI3K p85 mRNA levels for 28044 (antisense eA*e[5mC]*eA*eT*dT*dG*dA*dG*dG*dG*dA*dG*dT*dC*eG*eT*eT*eG) [compound 28044] .
Output: 0
